Source listed as a melting point compilation (Tetko et al.).

Reported melting point is given for each of the following molecules.

{"molecule": "N#Cc1nc(-c2ccccc2)oc1NN", "melting point": "209 to 211 °C"}
{"molecule": "Clc1nnc(-c2ccccn2)s1", "melting point": "105 to 107 °C"}
{"molecule": "OC(CC1CCCCCN1)c1ccccc1 (stereo not drawn)", "melting point": "36 to 38 °C"}
{"molecule": "O=C(O)c1csc(-c2ccc3c(c2)OCO3)n1", "melting point": "222 to 224 °C"}
{"molecule": "O=C(O)c1ccccc1SCC(F)(F)F", "melting point": "169 to 171 °C"}
{"molecule": "O=C(O)c1ccc2c(c1)C(=O)N(c1ccc(F)cc1)C2=O", "melting point": "295 to 297 °C"}

# input Item `Oc1ccccc1C1=NCCN1` has what recorded melting point?
# output 199 to 201 °C

# input What measured melting point goes with `COC1CCN(C(=O)Nc2cccc(C(=O)O)c2)CC1` ?
# output 196 to 198 °C

# input Form field: reported melting point of `Cn1cnnc1Sc1ccc(Br)cc1N`
# output 144 to 146 °C

# input Look up melting point: `Nc1ccnn1-c1ccc([N+](=O)[O-])cc1`
# output 138 to 140 °C

# input Given `Nc1sc2c(c1C(=O)c1cccc(F)c1)CCCC2` , state its recorded melting point.
# output 110 to 114 °C
